System: MET(Y1235D)
Experiment: KINOMEscan kinase binding assay
Settings: at 1 μM
ATTRIBUTE_MEASURED: % Ctrl (%)
Give just the numeric value; % need not be written.

Example molecules with recorded % Ctrl:
*Q* State, for MET(Y1235D), measured % Ctrl of the molecule listed here: Cc1cc2c([nH]1)/C=C1\C(=O)Nc3ccc(cc31)-c1c(nn(C)c1C)COCCN(C)C2=O
*A* 87

*Q* State, for MET(Y1235D), measured % Ctrl of the molecule listed here: Cc1cc2c([nH]1)/C=C1\C(=O)Nc3c(Cl)cc(cc31)-c1cn(C)nc1COC[C@@H](C)N(C)C2=O
*A* 100

*Q* State, for MET(Y1235D), measured % Ctrl of the molecule listed here: Cc1cc2c([nH]1)/C=C1\C(=O)Nc3c(Cl)cc(cc31)-c1cn(C)nc1COC[C@@H](C)NC2=O
*A* 100

Further cases:
*Q* State, for MET(Y1235D), measured % Ctrl of the molecule listed here: C[C@@H]1COCc2nn(C)cc2-c2cc(Cl)c3c(c2)/C(=C/c2[nH]ccc2C(=O)N1)C(=O)N3
*A* 100

*Q* State, for MET(Y1235D), measured % Ctrl of the molecule listed here: Cc1cc2c([nH]1)/C=C1\C(=O)Nc3ccc(cc31)-c1c(nn(C)c1C)OCCCN(C)C2=O
*A* 98

###

Test system: ABL1(F317L)-nonphosphorylated
Assay: KINOMEscan kinase binding assay
Conditions: at 1 μM
Catalogue of % Ctrl readings, one per entry.
Give just the numeric value; % need not be written.

Example compounds with recorded % Ctrl:
*Q* Report % Ctrl for Cc1cc2c([nH]1)/C=C1\C(=O)Nc3ccc(cc31)-c1c(nn(C)c1C)COCCN(C)C2=O
*A* 87

*Q* Report % Ctrl for C[C@@H]1COCc2nn(C)cc2-c2cc(Cl)c3c(c2)/C(=C/c2[nH]ccc2C(=O)N1)C(=O)N3
*A* 96

*Q* Report % Ctrl for Cc1cc2c([nH]1)/C=C1\C(=O)Nc3c(Cl)cc(cc31)-c1cn(C)nc1COC[C@@H](C)NC2=O
*A* 95

*Q* Report % Ctrl for Cc1cc2c([nH]1)/C=C1\C(=O)Nc3c(Cl)cc(cc31)-c1cn(C)nc1COC[C@@H](C)N(C)C2=O
*A* 86

Consider the additional compound presented here.
*Q* Report % Ctrl for Cc1cc2c([nH]1)/C=C1\C(=O)Nc3ccc(cc31)-c1c(nn(C)c1C)OCCCN(C)C2=O
*A* 83

###

Catalogue of Kd readings, one per entry.
Biological target: JAK1(JH2domain-pseudokinase)
Experiment: KINOMEscan kinase binding assay
Details: read-out: JAK1(JH2 domain-pseudokinase) Kd
Give just the numeric value; nM need not be written.

*Q* Report Kd for Cc1cc2c([nH]1)/C=C1\C(=O)Nc3c(F)cc(cc31)-c1cn(C)nc1COC[C@@H](C)N(C)C2=O [compound 13]
*A* 410

Further cases:
*Q* Report Kd for Cc1cc2c([nH]1)/C=C1\C(=O)Nc3c(F)cc(cc31)-c1c(nn(C)c1C)COC[C@@H](C)N(C)C2=O [compound 11]
*A* 730

*Q* Report Kd for Cc1cc2c([nH]1)/C=C1\C(=O)Nc3c(Cl)cc(cc31)-c1c(nn(C)c1C)COC[C@@H](C)N(C)C2=O [compound 12]
*A* 120

*Q* Report Kd for Cc1cc2c([nH]1)/C=C1\C(=O)Nc3c(Cl)cc(cc31)-c1cn(C)nc1COCCN(C)C2=O [Cpd. 7]
*A* 47

###

System: ABL1(Q252H)-phosphorylated
Experiment: KINOMEscan kinase binding assay
Settings: at 1 μM
ATTRIBUTE_MEASURED: % Ctrl (%)
Give just the numeric value; % need not be written.

Example compounds with recorded % Ctrl:
*Q* Report % Ctrl for C[C@@H]1COCc2nn(C)cc2-c2cc(Cl)c3c(c2)/C(=C/c2[nH]ccc2C(=O)N1)C(=O)N3
*A* 89

*Q* Report % Ctrl for Cc1cc2c([nH]1)/C=C1\C(=O)Nc3ccc(cc31)-c1c(nn(C)c1C)OCCCN(C)C2=O
*A* 99

*Q* Report % Ctrl for Cc1cc2c([nH]1)/C=C1\C(=O)Nc3c(Cl)cc(cc31)-c1cn(C)nc1COC[C@@H](C)NC2=O
*A* 100

*Q* Report % Ctrl for Cc1cc2c([nH]1)/C=C1\C(=O)Nc3ccc(cc31)-c1c(nn(C)c1C)COCCN(C)C2=O
*A* 62

Consider the additional compound presented here.
*Q* Report % Ctrl for Cc1cc2c([nH]1)/C=C1\C(=O)Nc3c(Cl)cc(cc31)-c1cn(C)nc1COC[C@@H](C)N(C)C2=O
*A* 89

###

System: FRK
Experiment: KINOMEscan kinase binding assay
Settings: at 1 μM
ATTRIBUTE_MEASURED: % Ctrl (%)
Give just the numeric value; % need not be written.

*Q* Report % Ctrl for Cc1cc2c([nH]1)/C=C1\C(=O)Nc3c(Cl)cc(cc31)-c1cn(C)nc1COC[C@@H](C)NC2=O
*A* 97

Further cases:
*Q* Report % Ctrl for C[C@@H]1COCc2nn(C)cc2-c2cc(Cl)c3c(c2)/C(=C/c2[nH]ccc2C(=O)N1)C(=O)N3
*A* 78

*Q* Report % Ctrl for Cc1cc2c([nH]1)/C=C1\C(=O)Nc3ccc(cc31)-c1c(nn(C)c1C)OCCCN(C)C2=O
*A* 93

*Q* Report % Ctrl for Cc1cc2c([nH]1)/C=C1\C(=O)Nc3c(Cl)cc(cc31)-c1cn(C)nc1COC[C@@H](C)N(C)C2=O
*A* 80

*Q* Report % Ctrl for Cc1cc2c([nH]1)/C=C1\C(=O)Nc3ccc(cc31)-c1c(nn(C)c1C)COCCN(C)C2=O
*A* 98

###

Catalogue of % Ctrl readings, one per entry.
System: MET
Assay: KINOMEscan kinase binding assay
Settings: at 1 μM
Give just the numeric value; % need not be written.

Example compounds with recorded % Ctrl:
*Q* Report % Ctrl for C[C@@H]1COCc2nn(C)cc2-c2cc(Cl)c3c(c2)/C(=C/c2[nH]ccc2C(=O)N1)C(=O)N3
*A* 98

*Q* Report % Ctrl for Cc1cc2c([nH]1)/C=C1\C(=O)Nc3ccc(cc31)-c1c(nn(C)c1C)OCCCN(C)C2=O
*A* 84

*Q* Report % Ctrl for Cc1cc2c([nH]1)/C=C1\C(=O)Nc3c(Cl)cc(cc31)-c1cn(C)nc1COC[C@@H](C)N(C)C2=O
*A* 96

*Q* Report % Ctrl for Cc1cc2c([nH]1)/C=C1\C(=O)Nc3ccc(cc31)-c1c(nn(C)c1C)COCCN(C)C2=O
*A* 95

Consider the additional compound presented here.
*Q* Report % Ctrl for Cc1cc2c([nH]1)/C=C1\C(=O)Nc3c(Cl)cc(cc31)-c1cn(C)nc1COC[C@@H](C)NC2=O
*A* 100

###

Catalogue of % Ctrl readings, one per entry.
Tested on: RET(M918T)
Assay: KINOMEscan kinase binding assay
Conditions: at 1 μM
Give just the numeric value; % need not be written.

*Q* State, for RET(M918T), measured % Ctrl of the molecule listed here: Cc1cc2c([nH]1)/C=C1\C(=O)Nc3c(Cl)cc(cc31)-c1cn(C)nc1COC[C@@H](C)NC2=O
*A* 100

*Q* State, for RET(M918T), measured % Ctrl of the molecule listed here: Cc1cc2c([nH]1)/C=C1\C(=O)Nc3ccc(cc31)-c1c(nn(C)c1C)COCCN(C)C2=O
*A* 92

*Q* State, for RET(M918T), measured % Ctrl of the molecule listed here: Cc1cc2c([nH]1)/C=C1\C(=O)Nc3c(Cl)cc(cc31)-c1cn(C)nc1COC[C@@H](C)N(C)C2=O
*A* 87

*Q* State, for RET(M918T), measured % Ctrl of the molecule listed here: C[C@@H]1COCc2nn(C)cc2-c2cc(Cl)c3c(c2)/C(=C/c2[nH]ccc2C(=O)N1)C(=O)N3
*A* 98

Consider the additional molecule presented here.
*Q* State, for RET(M918T), measured % Ctrl of the molecule listed here: Cc1cc2c([nH]1)/C=C1\C(=O)Nc3ccc(cc31)-c1c(nn(C)c1C)OCCCN(C)C2=O
*A* 84

###

System: ABL1-nonphosphorylated
Experiment: KINOMEscan kinase binding assay
Details: at 1 μM
Catalogue of % Ctrl readings, one per entry.
Give just the numeric value; % need not be written.

*Q* Report % Ctrl for Cc1cc2c([nH]1)/C=C1\C(=O)Nc3c(Cl)cc(cc31)-c1cn(C)nc1COC[C@@H](C)NC2=O [Cpd. 3]
*A* 92

*Q* Report % Ctrl for C[C@@H]1COCc2nn(C)cc2-c2cc(Cl)c3c(c2)/C(=C/c2[nH]ccc2C(=O)N1)C(=O)N3 [Cpd. 4]
*A* 84

*Q* Report % Ctrl for Cc1cc2c([nH]1)/C=C1\C(=O)Nc3c(Cl)cc(cc31)-c1cn(C)nc1COC[C@@H](C)N(C)C2=O [Cpd. 5]
*A* 87

*Q* Report % Ctrl for Cc1cc2c([nH]1)/C=C1\C(=O)Nc3ccc(cc31)-c1c(nn(C)c1C)COCCN(C)C2=O [Cpd. 2]
*A* 55

Consider the additional molecule presented here.
*Q* Report % Ctrl for Cc1cc2c([nH]1)/C=C1\C(=O)Nc3ccc(cc31)-c1c(nn(C)c1C)OCCCN(C)C2=O [Cpd. 1]
*A* 87
